test: NCI Yeast Anticancer Drug Screen. Data for the sgs1 mgt1 strain (AID 161);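 also: 0% = growth of cultures given vehicle only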; conditions: S. cerevisiae sgs1 mgt1 strain, at 5.0 µM (retest, dose inferred, filed as 0.5), hits give high values
About 79,000 compounds went through this panel and 15% of them were active in at least one assay; those are over-represented in the sample as a whole. Calls of active or inactive are those of the source. Rule as the data show it: active = growth inhibition above about 70%; inactive = the rest.
result_type: growth inhibition

Here are 8 compounds together with their reported answers.
compound	growth inhibition
O=C(O)c1ccccc1C1c2ccccc2Oc2ccccc21	-3% (inactive)
CC(C)(C)c1ccc2c(c1)CNCCNCc1cc(C(C)(C)C)ccc1OCC1(CO2)COc2ccc(C(C)(C)C)cc2CNCCNCc2cc(C(C)(C)C)ccc2OC1	99% (active)
COC1OC(=O)CC1C1CC=C2C3CCC4CC(O)CCC4(C)C3CCC21C (stereo not given)	-22% (inactive)
CCCCNc1ncc(OCC)c(NCCCC)n1	0% (inactive)
O=[N+]([O-])c1ccc(N/N=C/CCCCCCCCCCBr)c([N+](=O)[O-])c1	-5% (inactive)
COC(=O)N(C[C@@H]1C=CCCC1)c1ccccc1I	26% (inactive)
CCCCCOC(=O)c1ccc(O)cc1	2% (inactive)
O=C1c2cc([N+](=O)[O-])cc3cc([N+](=O)[O-])cc(c23)C(=O)N1CCNCCN1C(=O)c2cc([N+](=O)[O-])cc3cc([N+](=O)[O-])cc(c23)C1=O	64% (inactive)

Please give growth inhibition, item by item, for the list that follows.
1. O=C1C(c2c[nH]c3ccccc23)=Nc2ccc(Br)cc21
2. CC(=O)NNc1ccc(Cl)cc1[N+](=O)[O-]
3. CCC/C(C)=N/NC(=S)SC
4. Cc1ccc(S(=O)(=O)NC(CCC(=O)Nc2ccccc2)C(=O)O)cc1 (stereo not given)
5. CC(C)SC(=S)Nc1ccc(Cl)c([N+](=O)[O-])c1
6. CC(C)c1cccc(O)c1O
7. CCCCCN(CCCCC)C(C)C(=O)c1ccc2cc(Br)c3ccccc3c2c1 (stereo not given)

Outgoing:
1: 25% (inactive); 2: -6% (inactive); 3: 27% (inactive); 4: -6% (inactive); 5: 18% (inactive); 6: 9% (inactive); 7: 13% (inactive)

Report growth inhibition for every entry below.
1. COC(=O)C1=C(C)NC(C)=C(C(=O)OC)C1c1ccc(/[N+]([O-])=C/c2ccccc2)cc1
2. CC(=Nc1ccc(S(=O)(=O)c2ccc(N=C(C)N3CCCCC3)cc2)cc1)N1CCCCC1
3. CC(C)c1cc(=O)c2cc3[nH]c4ccccc4c3cc2[nH]1
4. Clc1cc2c(c3ncccc13)OCN(Cc1ccccc1)C2

Outgoing:
13% (inactive)
-2% (inactive)
-69% (inactive)
14% (inactive)

// input: 3 compounds below; output: growth inhibition for each
1. CNc1ccc(F)cc1SSc1cc(F)ccc1NC
2. O=c1[nH]c2c([N+](=O)[O-])cc(Cl)cc2nc1/C=C(\O)c1ccc(Cl)cc1
3. COc1ccc(S(=O)(=O)O)cc1-n1nc(C(=O)Nc2ccccc2)n[n+]1-c1cc(S(=O)(=O)[O-])ccc1OC

Outgoing:
95% (active)
-3% (inactive)
10% (inactive)

Record growth inhibition per entry; entries follow.
1. CC(C)=CCc1ccc(O)cc1
2. COc1ccc(CN2COc3c(cc(Cl)c4cccnc34)C2)cc1

Outgoing:
["-13% (inactive)", "1% (inactive)"]
